# test-target: GST-Hu-p50 (Homo sapiens, UniProt P19838 7-356)
# Sequence (P19838 7-356): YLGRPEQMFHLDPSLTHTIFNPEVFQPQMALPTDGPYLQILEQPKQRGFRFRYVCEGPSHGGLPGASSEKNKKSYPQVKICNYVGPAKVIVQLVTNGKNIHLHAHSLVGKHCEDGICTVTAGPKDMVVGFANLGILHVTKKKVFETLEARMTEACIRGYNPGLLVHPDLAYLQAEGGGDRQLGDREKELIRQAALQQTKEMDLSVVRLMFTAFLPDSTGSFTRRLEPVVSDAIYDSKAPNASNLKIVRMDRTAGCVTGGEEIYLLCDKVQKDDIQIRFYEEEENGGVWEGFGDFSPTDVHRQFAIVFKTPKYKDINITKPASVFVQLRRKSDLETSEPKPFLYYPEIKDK
# experiment-description: protein-binding microarray (PBM); PBM: ~300 nM protein, 6 mM HEPES pH 7.8, 80 mM KCl, 0.5 mM EDTA, 0.5 mM EGTA, 6% glycerol, 35 ng/ul poly-dIdC, 1% milk, 1 h, room temperature; high values mean tight binding
# experimental-parameters: dsDNA, one strand shown
binding signal vs 2 z-score: less than gives 1; not less than gives 0.

INSERT INTO results (chain_sequence, assigned_label) VALUES
  ('CCGATTAACATCAGGGACAACCCTGATGTTAATCGGGTCTTGATTCGCTTGACGCTGCTG', 0),
  ('CCGATTAACATCAGTAACTCCCTTGATGTTAATCGGGTCTTGATTCGCTTGACGCTGCTG', 0),
  ('CCGATTAACATCAGGGAAAAACCTGATGTTAATCGGGTCTTGATTCGCTTGACGCTGCTG', 0),
  ('CCGATTAACATCAAGGAAAACCCTGATGTTAATCGGGTCTTGATTCGCTTGACGCTGCTG', 0),
  ('CCGATTAACATCAATGGAATTCCTGATGTTAATCGGGTCTTGATTCGCTTGACGCTGCTG', 1),
  ('CCGATTAACATCAGGGAAAAGGATGATGTTAATCGGGTCTTGATTCGCTTGACGCTGCTG', 1),
  ('CCGATTAACATCACATCTTCCCCTGATGTTAATCGGGTCTTGATTCGCTTGACGCTGCTG', 0),
  ('CCGATTAACATCAAATTCCCTCGTGATGTTAATCGGGTCTTGATTCGCTTGACGCTGCTG', 0),
  ('CCGATTAACATCAGGGGAGTAAATGATGTTAATCGGGTCTTGATTCGCTTGACGCTGCTG', 0);

---

# test-target: GST-Nv-NF-kB (Ser allele) (Nematostella vectensis, UniProt A7UNT2 2-411)
# Sequence: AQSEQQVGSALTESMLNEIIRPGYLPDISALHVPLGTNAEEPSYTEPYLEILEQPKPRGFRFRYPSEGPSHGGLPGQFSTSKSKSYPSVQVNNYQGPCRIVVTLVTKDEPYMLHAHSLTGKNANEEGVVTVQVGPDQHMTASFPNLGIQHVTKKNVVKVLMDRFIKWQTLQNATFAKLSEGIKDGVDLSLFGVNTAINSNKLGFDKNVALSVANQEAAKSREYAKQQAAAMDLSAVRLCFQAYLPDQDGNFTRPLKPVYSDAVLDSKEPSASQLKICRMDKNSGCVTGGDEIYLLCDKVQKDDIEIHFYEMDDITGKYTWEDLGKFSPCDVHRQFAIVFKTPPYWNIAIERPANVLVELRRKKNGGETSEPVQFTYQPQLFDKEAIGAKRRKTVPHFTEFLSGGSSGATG
# experiment-description: protein-binding microarray (PBM); PBM: ~300 nM protein, 6 mM HEPES pH 7.8, 80 mM KCl, 0.5 mM EDTA, 0.5 mM EGTA, 6% glycerol, 35 ng/ul poly-dIdC, 1% milk, 1 h, room temperature; high values mean tight binding
# experimental-parameters: dsDNA, one strand shown
Recorded binding signal values for a group of sequences are listed next.
parameter-measured: binding signal (z-score)

INSERT INTO assay_data (chain_sequence, u, observed) VALUES
  ('CCGATTAACATCACTGTTTTCCCTGATGTTAATCGGGTCTTGATTCGCTTGACGCTGCTG', 'z-score', 6.12),
  ('CCGATTAACATCAGGGGGTTACATGATGTTAATCGGGTCTTGATTCGCTTGACGCTGCTG', 'z-score', 4.94),
  ('CCGATTAACATCAGGGTATTACCTGATGTTAATCGGGTCTTGATTCGCTTGACGCTGCTG', 'z-score', 4.88),
  ('CCGATTAACATCAGGGAATCCACTGATGTTAATCGGGTCTTGATTCGCTTGACGCTGCTG', 'z-score', 3.63),
  ('CCGATTAACATCAAATCGGGAAATGATGTTAATCGGGTCTTGATTCGCTTGACGCTGCTG', 'z-score', 2.88),
  ('CCGATTAACATCAGGGGATATACTGATGTTAATCGGGTCTTGATTCGCTTGACGCTGCTG', 'z-score', 5.69),
  ('CCGATTAACATCATGGTACTTGTTGATGTTAATCGGGTCTTGATTCGCTTGACGCTGCTG', 'z-score', 1.85),
  ('CCGATTAACATCAGGGAATTCCATGATGTTAATCGGGTCTTGATTCGCTTGACGCTGCTG', 'z-score', 5.22),
  ('CCGATTAACATCAGGCACCCCCCTGATGTTAATCGGGTCTTGATTCGCTTGACGCTGCTG', 'z-score', 3.18);

---

# test-target: GST-Hu-p50 (Homo sapiens, UniProt P19838 7-356)
# experiment-description: protein-binding microarray (PBM); PBM: ~300 nM protein, 6 mM HEPES pH 7.8, 80 mM KCl, 0.5 mM EDTA, 0.5 mM EGTA, 6% glycerol, 35 ng/ul poly-dIdC, 1% milk, 1 h, room temperature; Ap Aiptasia and Nv Nematostella (sea anemones) / Co Capsaspora / Aq Amphimedon (sponge) / Dm Drosophila / Hu human; RHD is the Rel homology domain; high values mean tight binding
# experimental-parameters: dsDNA, one strand shown
parameter-measured: binding signal (z-score)

INSERT INTO assay_data (chain_sequence, u, observed) VALUES
  ('CCGATTAACATCAAATTTCCCGCTGATGTTAATCGGGTCTTGATTCGCTTGACGCTGCTG', 'z-score', 3.98),
  ('CCGATTAACATCAGGTATTCCCATGATGTTAATCGGGTCTTGATTCGCTTGACGCTGCTG', 'z-score', 1.73),
  ('CCGATTAACATCATAAGCGGGGATGATGTTAATCGGGTCTTGATTCGCTTGACGCTGCTG', 'z-score', 3.66),
  ('CCGATTAACATCAGCATTTTCCCTGATGTTAATCGGGTCTTGATTCGCTTGACGCTGCTG', 'z-score', 3.25),
  ('CCGATTAACATCAGGGAACTTTATGATGTTAATCGGGTCTTGATTCGCTTGACGCTGCTG', 'z-score', 3.66),
  ('CCGATTAACATCAGGGTATTCCATGATGTTAATCGGGTCTTGATTCGCTTGACGCTGCTG', 'z-score', 4.11),
  ('CCGATTAACATCAGAATATTCCCTGATGTTAATCGGGTCTTGATTCGCTTGACGCTGCTG', 'z-score', 3.75),
  ('CCGATTAACATCATCTTTTTACTTGATGTTAATCGGGTCTTGATTCGCTTGACGCTGCTG', 'z-score', 1.01),
  ('CCGATTAACATCACTTTTTCCCATGATGTTAATCGGGTCTTGATTCGCTTGACGCTGCTG', 'z-score', 3.04),
  ('CCGATTAACATCAGAAATCCCGCTGATGTTAATCGGGTCTTGATTCGCTTGACGCTGCTG', 'z-score', 2.45),
  ('CCGATTAACATCACAGGAATTTCTGATGTTAATCGGGTCTTGATTCGCTTGACGCTGCTG', 'z-score', 1.08),
  ('CCGATTAACATCACCTTGGGAAATGATGTTAATCGGGTCTTGATTCGCTTGACGCTGCTG', 'z-score', 2.17),
  ('CCGATTAACATCAGGAAATGCCCTGATGTTAATCGGGTCTTGATTCGCTTGACGCTGCTG', 'z-score', 2.89),
  ('CCGATTAACATCAGGAGTTACCCTGATGTTAATCGGGTCTTGATTCGCTTGACGCTGCTG', 'z-score', 2.44),
  ('CCGATTAACATCATTGTCCCTTCTGATGTTAATCGGGTCTTGATTCGCTTGACGCTGCTG', 'z-score', 1.99),
  ('CCGATTAACATCAGGGAAAGGTATGATGTTAATCGGGTCTTGATTCGCTTGACGCTGCTG', 'z-score', 2.11),
  ('CCGATTAACATCAGGGGCAACCCTGATGTTAATCGGGTCTTGATTCGCTTGACGCTGCTG', 'z-score', 3.13),
  ('CCGATTAACATCAGGGGAACCTATGATGTTAATCGGGTCTTGATTCGCTTGACGCTGCTG', 'z-score', 4.74),
  ('CCGATTAACATCAAGAAATTCCTTGATGTTAATCGGGTCTTGATTCGCTTGACGCTGCTG', 'z-score', 1.18),
  ('CCGATTAACATCAGGGGGTAGGATGATGTTAATCGGGTCTTGATTCGCTTGACGCTGCTG', 'z-score', 2.97),
  ('CCGATTAACATCAGAAAATCCCATGATGTTAATCGGGTCTTGATTCGCTTGACGCTGCTG', 'z-score', 3.86),
  ('CCGATTAACATCACGGGAAACTCTGATGTTAATCGGGTCTTGATTCGCTTGACGCTGCTG', 'z-score', 2.31),
  ('CCGATTAACATCAGGGAGTTCCATGATGTTAATCGGGTCTTGATTCGCTTGACGCTGCTG', 'z-score', 2.54),
  ('CCGATTAACATCATTGGGAAAAATGATGTTAATCGGGTCTTGATTCGCTTGACGCTGCTG', 'z-score', 2.4),
  ('CCGATTAACATCAAATTTCCAGGTGATGTTAATCGGGTCTTGATTCGCTTGACGCTGCTG', 'z-score', 1.2),
  ('CCGATTAACATCAAGGGAAAAATTGATGTTAATCGGGTCTTGATTCGCTTGACGCTGCTG', 'z-score', 4.56),
  ('CCGATTAACATCACTTTTTTCCCTGATGTTAATCGGGTCTTGATTCGCTTGACGCTGCTG', 'z-score', 3.53),
  ('CCGATTAACATCAGGGACACCCCTGATGTTAATCGGGTCTTGATTCGCTTGACGCTGCTG', 'z-score', 4.03),
  ('CCGATTAACATCAGGAAAGTCCATGATGTTAATCGGGTCTTGATTCGCTTGACGCTGCTG', 'z-score', 1.14),
  ('CCGATTAACATCAGTCCCGCACTTGATGTTAATCGGGTCTTGATTCGCTTGACGCTGCTG', 'z-score', 1.18),
  ('CCGATTAACATCAGGGGAAGGACTGATGTTAATCGGGTCTTGATTCGCTTGACGCTGCTG', 'z-score', 3.89),
  ('CCGATTAACATCAGGGTGTTTTATGATGTTAATCGGGTCTTGATTCGCTTGACGCTGCTG', 'z-score', 4.01),
  ('CCGATTAACATCAAACAGGGAAATGATGTTAATCGGGTCTTGATTCGCTTGACGCTGCTG', 'z-score', 2.36),
  ('CCGATTAACATCAAAATTCCCGGTGATGTTAATCGGGTCTTGATTCGCTTGACGCTGCTG', 'z-score', 4.89),
  ('CCGATTAACATCATTAGGGAAAATGATGTTAATCGGGTCTTGATTCGCTTGACGCTGCTG', 'z-score', 4.64),
  ('CCGATTAACATCACCCAGTTCCCTGATGTTAATCGGGTCTTGATTCGCTTGACGCTGCTG', 'z-score', 1.24);
